These data points were gathered from ChEMBL document CHEMBL1201861.

# Test system: HGC-27;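 also: growth inhibition of human HGC-27 cells, read out in a cell viability assay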
# protocol-summary: cells
# Assay type: functional, cell-based, Homo sapiens
# cond: Homo sapiens, HGC-27
# Description: SANGER: Inhibition of human HGC-27 cell growth in a cell viability assay.

compound	inequality-operator	IC50 [nM]
CCC1=C[C@@H]2CN(C1)Cc1c([nH]c3ccccc13)[C@@](C(=O)OC)(c1cc3c(cc1OC)N(C)[C@H]1[C@@](O)(C(=O)OC)[C@H](OC(C)=O)[C@]4(CC)C=CCN5CC[C@]31[C@@H]54)C2	=	1.85
O=C(c1cc(Cc2n[nH]c(=O)c3ccccc23)ccc1F)N1CCN(C(=O)C2CC2)CC1	>	5000
COC(=O)CNC(=O)C(=O)OC	=	188000
Cc1cnc(-c2cnc(NCCNc3ccc(C#N)cn3)nc2-c2ccc(Cl)cc2Cl)[nH]1	>	2560
COc1cc([C@@H]2c3cc4c(cc3[C@@H](O[C@@H]3O[C@@H]5CO[C@@H](C)O[C@H]5[C@H](O)[C@H]3O)[C@H]3COC(=O)[C@H]23)OCO4)cc(OC)c1O [ETOPOSIDE]	=	102
